- Tested on: YCL025C
- assayName: GFP reporter expression in TORC1-bypass yeast, mechanism study for yeast TOR pathway modulator project, S. cerevisiae, TORC1 bypass vs wild-type strains (AID 504479)
- measurementConditions: fluorescence ratio vs DMSO, at 10 µM
Lab note: compare GFP ratio vs DMSO with 0.9, writing yes if less and no if equal or more.

>>> assignedlabel("O=C1ON=C(c2ccccc2)/C1=C\\c1ccco1")
"no"
>>> assignedlabel("CCCOc1ccc(C(=O)NNC(=S)NC(=O)CC)cc1")
"no"
>>> assignedlabel("CO[C@H]1C[C@@H]2CC[C@@H](C)[C@@](O)(O2)C(=O)C(=O)N2CCCC[C@H]2C(=O)O[C@H]([C@H](C)C[C@@H]2CC[C@@H](O)[C@H](OC)C2)CC(=O)[C@H](C)/C=C(\\C)[C@@H](O)[C@@H](OC)C(=O)[C@H](C)C[C@H](C)/C=C/C=C/C=C/1C")
"no"
>>> assignedlabel("O=C(OCC(=O)N1CCN(C(=O)c2ccco2)CC1)c1cc(-c2cccc(Br)c2)nc2ccccc12")
"no"
>>> assignedlabel("Cc1ccc(/C=C2/C(=O)ON=C2c2ccccc2)o1")
"yes"
>>> assignedlabel("CC(=O)SC(C[N+](=O)[O-])c1cn(C(C)=O)c2ccccc12 (configuration not stated)")
"yes"
>>> assignedlabel("COc1ccc(C(=O)NNC(=S)NC(=O)/C=C/c2cccs2)cc1")
"no"
>>> assignedlabel("CCCCC(=O)NNC(=S)NC(=O)c1ccc(C)cc1")
"no"

Let's switch to this molecule now.
Data request: Field: below-cutoff. Rule: recorded GFP ratio vs DMSO strictly less than 0.9. Subject: CC(C)(C)C(=O)NC(=S)NNC(=O)c1ccc(-c2ccccc2)cc1
Data returned: no
